tested on: BT549; experiment: Cell viability assay, cancer cell line panel; format: cell-based; conditions: Homo sapiens, BT-549; mutation PTEN
pIC50: −log10 of the molar value.
QUANTITY MEASURED: pIC50

In [3]: df
Out[3]:
                                   compound  quantity_measured  measured_result
0  O=C(Nc1ccc2[nH]nc(-c3nc4ccc(N5CCOCC5)cc4[nH]3)c2c1)C1CC1(F)F (stereo not shown) [Compound 1]              pIC50             5.50

----------
system: phosphorylation of the ribosomal protein s6 in AN3-CA cells; assay: In-cell western, phosphorylation of ribosomal protein s6; type: cell-based; settings: Homo sapiens, 2 hours
QUANTITY MEASURED: IC50 (µM)

                                   compound  value_units  measured_result
0  O=C(Nc1ccc2[nH]nc(-c3nc4ccc(N5CCOCC5)cc4[nH]3)c2c1)C1CC1(F)F (centres unmarked)           µM           0.0756
1  CC1CN(c2ccc3nc(-c4n[nH]c5ccc(NC(=O)C6CC6(F)F)cc45)[nH]c3c2)CCO1 (centres unmarked)           µM           0.0767
